B1: ATL3 (parent)
chain: YGLQGGMAFLDKRLQVKEHQHEEI

- Variants of: B1
- PROTOCOL SUMMARY: protein stability index of a GFP-peptide fusion (GPS, HEK-293T) (PSI 1-6); higher = more stable;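 note: lentivirally expressed fusions sorted by FACS into six bins by GFP to DsRed ratio, PSI derived from sequencing read proportions per bin multiplied by bin number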
- CONDITION PARAMETERS: c terminus: a fixed tail appended
ENDPOINT: protein stability index
Lab note: record just the number, no unit beside it.

Req: Could you share which protein stability index value was measured for L10G ?
Resp: 1.89

Req: Could you share which protein stability index value was measured for Q20W ?
Resp: 1.55

Req: Could you share which protein stability index value was measured for Y1H ?
Resp: 3.51

Req: Could you share which protein stability index value was measured for E23G ?
Resp: 3.58

Req: Could you share which protein stability index value was measured for H19N ?
Resp: 2.6

Req: Could you share which protein stability index value was measured for E18L ?
Resp: 1.74

Req: Could you share which protein stability index value was measured for G2R ?
Resp: 3.49

Req: Could you share which protein stability index value was measured for H19M ?
Resp: 2.82

Req: Could you share which protein stability index value was measured for K12T ?
Resp: 1.79

Req: Could you share which protein stability index value was measured for Y1L ?
Resp: 3.38

Req: Could you share which protein stability index value was measured for G2P ?
Resp: 2.63

Req: Could you share which protein stability index value was measured for G6L ?
Resp: 3.04

Req: Could you share which protein stability index value was measured for L10D ?
Resp: 4.11

Req: Could you share which protein stability index value was measured for L14R ?
Resp: 2.48

Req: Could you share which protein stability index value was measured for L10H ?
Resp: 1.98

Req: Could you share which protein stability index value was measured for F9G ?
Resp: 4.45
